# assay_info: Ex vivo prodrug stability in normal mouse liver homogenate (LC/MS/MS)
# Format: in vitro ADME
# measurement_conditions: mouse, tissue homogenate; murine liver homogenate; mean of four independent experiments; read-out: Liver t½
Non-standard residues stand in square brackets, D forms with d. Residues, ends and D or L forms follow the SMILES beside them. *: point of attachment. NH(Colchicin-10-yl) = COc1cc2c(c(OC)c1OC)-c1ccc(N*)c(=O)cc1[C@@H](NC(C)=O)CC2; FITC = O=C1OC2(c3ccc(O)cc3Oc3cc(O)ccc32)c2ccc(NC(=S)*)cc21; hPhe = N[C@@H](CCc1ccccc1)C(=O)O; Cit = NC(=O)NCCC[C@H](N)C(=O)O; βAla = NCCC(=O)O
measure_name: half-life
Just the number plus its unit, please.

What value of half-life has been recorded for this entry: COc1cc2c(c(OC)c1OC)-c1ccc(NC(=O)[C@H](Cc3ccc(O)cc3)NC(=O)[C@H](CC(C)C)NC(=O)[C@H](CC(=O)O)NC(=O)[C@H](CCc3ccccc3)NC(=O)CNC(=O)[C@H](CCCNC(N)=O)NC(=O)[C@H](CO)NC(=O)[C@H](CCCNC(=N)N)NC(=O)CCNC(=S)Nc3ccc4c(c3)C(=O)OC43c4ccc(O)cc4Oc4cc(O)ccc43)c(=O)cc1[C@@H](NC(C)=O)CC2 [ICT3055] ({FITC-βAla}-RS[Cit]G[hPhe]DLY-{NH(Colchicin-10-yl)}) 1.12 h

What value of half-life has been recorded for this entry: COc1cc2c(c(OC)c1OC)-c1ccc(NC(=O)[C@H](Cc3ccc(O)cc3)NC(=O)[C@H](CC(C)C)NC(=O)[C@H](CC(C)C)NC(=O)[C@H](CCc3ccccc3)NC(=O)CNC(=O)[C@H](CCCNC(N)=O)NC(=O)[C@H](CO)NC(=O)[C@H](CCCNC(=N)N)NC(=O)CCNC(=S)Nc3ccc4c(c3)C(=O)OC43c4ccc(O)cc4Oc4cc(O)ccc43)c(=O)cc1[C@@H](NC(C)=O)CC2 [ICT3080] ({FITC-βAla}-RS[Cit]G[hPhe]LLY-{NH(Colchicin-10-yl)}) 2.23 h
